Target desc: P2Y purinoceptor 1 (Meleagris gallopavo, UniProt P49652)
Sequence (P49652 whole entry): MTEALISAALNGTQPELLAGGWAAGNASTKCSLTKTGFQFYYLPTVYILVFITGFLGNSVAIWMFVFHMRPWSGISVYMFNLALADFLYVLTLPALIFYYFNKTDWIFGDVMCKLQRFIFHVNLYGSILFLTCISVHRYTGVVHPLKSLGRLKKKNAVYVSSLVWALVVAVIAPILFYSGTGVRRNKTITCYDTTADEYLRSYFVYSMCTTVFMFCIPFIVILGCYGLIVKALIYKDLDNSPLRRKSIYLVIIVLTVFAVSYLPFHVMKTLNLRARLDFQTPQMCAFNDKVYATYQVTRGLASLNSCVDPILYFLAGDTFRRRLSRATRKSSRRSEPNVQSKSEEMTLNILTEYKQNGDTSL
Experimental details: Inhibition of 10 nM 2-MeS-ADP-stimulated phospholipase C in turkey erythrocyte membranes using [3H]inositol
Type: functional, cell membranes
Property name: pIC50
Lab note — pIC50 values are minus log10 of concentrations in M.

Challenge: # get_value(readout='pIC50', item= "Cc1nc(/N=N/c2ccc(C(=O)O)cc2)c(COP(=O)(O)O)c(C=O)c1O" )
Response given: 4.00

Challenge: # get_value(readout='pIC50', item= "Cc1nc(/N=N/c2cc(S(=O)(=O)O)ccc2S(=O)(=O)O)c(COP(=O)(O)O)c(COP(=O)(O)O)c1O" )
Response given: 4.00

Challenge: # get_value(readout='pIC50', item= "Cc1nc(/N=N/c2cc(S(=O)(=O)O)ccc2S(=O)(=O)O)c(COP(=O)(O)O)c(C=O)c1O" )
Response given: 4.67

Challenge: # get_value(readout='pIC50', item= "Cc1nc(/N=N/c2cc(S(=O)(=O)O)ccc2S(=O)(=O)O)c(CP(=O)(O)O)c(C=O)c1O" )
Response given: 4.34

Challenge: # get_value(readout='pIC50', item= "Cc1nc(/N=N/c2ccc(C(=O)O)cc2)c(CCP(=O)(O)O)c(C=O)c1O" )
Response given: 4.00

Challenge: # get_value(readout='pIC50', item= "Cc1nc(/N=N/c2cc(CP(=O)(O)O)cc(CP(=O)(O)O)c2)c(CP(=O)(O)O)c(C=O)c1O" )
Response given: 4.84

Challenge: # get_value(readout='pIC50', item= "Cc1nc(/N=N/c2ccc(P(=O)(O)O)cc2)c(CP(=O)(O)O)c(C=O)c1O" )
Response given: 4.57

Challenge: # get_value(readout='pIC50', item= "Cc1nc(/N=N/c2ccc(S(=O)(=O)O)cc2S(=O)(=O)O)c(COP(=O)(O)O)c(C=O)c1O" )
Response given: 4.78

Challenge: # get_value(readout='pIC50', item= "Cc1nc(/N=N/c2cc(S(=O)(=O)O)ccc2Cl)c(COP(=O)(O)O)c(COP(=O)(O)O)c1O" )
Response given: 4.00

Origin of measurements: ChEMBL document CHEMBL1134335
